measurement target: COVID-19 (nCoV-2019, SARS-CoV2) Mpro (Severe acute respiratory syndrome coronavirus 2, UniProt P0DTD1)
experimental protocol: COVID-19 (nCoV-2019, SARS-CoV2) Mpro enzymatic assay
Type: biochemical
test conditions: 25 nM Mpro, 25 μM substrate; read-out: COVID-19 Mpro IC50
pIC50: −log10 of the molar value.
experimental readout: pIC50

List reported pIC50 for each of these compounds:
1. N#C[C@H]1C[C@H](C(=O)N(c2ccc(S(F)(F)(F)(F)F)cc2)C(C(=O)NC2CCC(F)(F)CC2)c2cncc(F)c2)N(C#N)C1 (single isomer, unassigned) [1100 Isomer 2]
2. CC1(C)CN(C#N)[C@@H](C(=O)N(c2ccc(C(C)(C)C)cc2)C(C(=O)NC2CCOCC2)c2cccnc2)CO1 (single isomer, unassigned) [1141 Isomer 4]
3. COc1cncc(C(C(=O)NC2CCCCC2)N(C(=O)[C@H]2C[C@@H](O)CN2C#N)c2ccc(C(C)(C)C)cc2)c1 (single isomer, unassigned) [679 Isomer 1]

# output
["> 5.70", "4.52 to 5.00", "> 5.70"]

====

Provide the reported EC50 of each item.
measurement target: 229E Mpro (Human coronavirus 229E, UniProt P0C6X1)
Sequence (P0C6X1 2966-3267): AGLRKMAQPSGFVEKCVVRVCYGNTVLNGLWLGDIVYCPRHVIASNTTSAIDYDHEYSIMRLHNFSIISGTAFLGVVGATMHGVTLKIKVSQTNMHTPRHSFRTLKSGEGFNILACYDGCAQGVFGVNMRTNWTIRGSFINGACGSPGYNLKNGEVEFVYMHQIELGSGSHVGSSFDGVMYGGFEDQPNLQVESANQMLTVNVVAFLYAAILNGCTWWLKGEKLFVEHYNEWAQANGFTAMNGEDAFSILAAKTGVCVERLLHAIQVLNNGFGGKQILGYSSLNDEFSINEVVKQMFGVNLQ
experimental protocol: 229E Mpro enzymatic assay (standard methods, SARS-CoV2 Mpro assay given as exemplary)
Assay type: biochemical, human coronavirus (HCov) 229E
test conditions: 229E Mpro EC50

| compound | measurement target | EC50 |
| --- | --- | --- |
| CO[C@@H]1C[C@H](C(=O)N(c2ccc(S(F)(F)(F)(F)F)cc2)C(C(=O)NC(C)C2CCCCN2C(=O)OC(C)(C)C)c2cccnc2)N(C#N)C1 (single isomer, unassigned) [1303 Isomer 3] | 229E Mpro (Human coronavirus 229E, UniProt P0C6X1) | < 2000 nM |
| N#CN1C[C@H](O)C[C@@H]1C(=O)N(c1ccc(C(F)(C(F)(F)F)C(F)(F)F)cc1)C(C(=O)NC1CCCCC1)c1cccnc1 (single isomer, unassigned) [Compound 779 Isomer 2] | 229E Mpro (Human coronavirus 229E, UniProt P0C6X1) | 2000 to 10000 nM |
| CC(C)(C)c1ccc(N(C(=O)C2CCC(F)(F)CN2C#N)C(C(=O)NC2CCCCC2)c2cccnc2)cc1 (single isomer, unassigned) [885 Isomer 1] | 229E Mpro (Human coronavirus 229E, UniProt P0C6X1) | 10000 to 30000 nM |

List reported EC50 for each of these compounds:
1. COCCNC(=O)C(c1cccnc1)N(C(=O)[C@H]1C[C@@H](O)CN1C#N)c1ccc(C(C)(C)C)cc1 (single isomer, unassigned) [627 Isomer 1]
2. C[C@H](NC(=O)C(c1cnccc1C(F)(F)F)N(C(=O)[C@H]1C[C@@](C)(O)CN1C#N)c1ccc(S(F)(F)(F)(F)F)cc1)c1ccccc1 (some centres unmarked)

# output
["< 2000 nM", "< 2000 nM"]

====

measurement target: COVID-19 (nCoV-2019, SARS-CoV2) Mpro (Severe acute respiratory syndrome coronavirus 2, UniProt P0DTD1)
experimental protocol: COVID-19 (nCoV-2019, SARS-CoV2) Mpro enzymatic assay
Type: biochemical
test conditions: 25 nM Mpro, 25 μM substrate; read-out: COVID-19 Mpro IC50
pIC50: −log10 of the molar value.
experimental readout: pIC50

See these solved cases before continuing.
| compound | pIC50 |
| --- | --- |
| CC(C)(C)OC(=O)N1CCN(C(=O)C(c2cccnc2)N(C(=O)[C@H]2CCCN2C#N)c2ccc(C(C)(C)C)cc2)CC1 (some centres unmarked) [Compound 954b] | 5.00 to 5.70 |
| CO[C@@H]1C[C@H](C(=O)N(c2ccc(S(F)(F)(F)(F)F)cc2)C(C(=O)NC2CCC(F)(F)CC2)c2cncc(F)c2)N(C#N)C1 (single isomer, unassigned) [1265 Isomer 1] | > 5.70 |
| CN(C(=O)C(c1cccnc1)N(C(=O)[C@H]1CCCN1C#N)c1ccc(C(C)(C)C)cc1)C1CCCCC1 (some centres unmarked) | 5.00 to 5.70 |

List reported pIC50 for each of these compounds:
1. CC(C)(C)c1ccc(N(C(=O)[C@H]2C[C@@H](O)CN2C#N)C(C(=O)NC2CCCCC2)c2cncc(Cl)c2)cc1 (single isomer, unassigned) [675 Isomer 2]
2. CO[C@@H]1C[C@H](C(=O)N(c2ccc(S(F)(F)(F)(F)F)cc2)C(C(=O)NC2CCC(F)(F)CC2)c2cnccc2C)N(C#N)C1 (single isomer, unassigned) [1199 Isomer 1]
3. CO[C@@H]1C[C@H](C(=O)N(c2ccc(C(C)(C)C)cc2)C(C)(C(=O)NC2CCCCC2)c2cccnc2)N(C#N)C1 (single isomer, unassigned) [1230 Isomer 1]
4. CC(C)(C)c1ccc(N(C(=O)[C@H]2CCCN2C#N)C(C(=O)NC2CCCCC2)c2cccnc2)cc1 (single isomer, unassigned) [Compound 130b]
5. CO[C@@H]1C[C@H](C(=O)N(c2ccc(S(F)(F)(F)(F)F)cc2)C(C(=O)NCCN2CCN(C(=O)OC(C)(C)C)CC2)c2cccnc2)N(C#N)C1 (some centres unmarked)
6. CC(C)(C)c1ccc(N(C(=O)[C@H]2C[C@@H](O)CN2C#N)C(C(=O)NC2CCCCC2)c2cccnc2)c(Cl)c1 (some centres unmarked)
7. CN1CC(C(=O)N(c2ccc(S(F)(F)(F)(F)F)cc2)C(C(=O)NC2CCC(F)(F)CC2)c2cncc(F)c2)N(C#N)CC1=O (single isomer, unassigned) [Compound 1161 Isomer 3]
8. CC(C)(C)c1ccc(N(C(=O)[C@H]2C[C@@H](O)CN2C#N)C(C(=O)NC2CCCCC2)c2cccnc2)cc1 (single isomer, unassigned) [Compound 254]

# output
5.00 to 5.70
> 5.70
< 4.52
< 4.52
5.00 to 5.70
4.52 to 5.00
5.00 to 5.70
> 5.70

====

measurement target: COVID-19 (nCoV-2019, SARS-CoV2) Mpro (Severe acute respiratory syndrome coronavirus 2, UniProt P0DTD1)
experimental protocol: COVID-19 (nCoV-2019, SARS-CoV2) Mpro enzymatic assay
Type: biochemical
test conditions: 25 nM Mpro, 25 μM substrate; read-out: COVID-19 Mpro IC50
Provide the reported IC50 of each item.

See these solved cases before continuing.
| molecule | result |
| --- | --- |
| N#CN1C[C@H](O)C[C@@H]1C(=O)N(c1ccc(S(F)(F)(F)(F)F)cc1F)C(C(=O)NC1CCC(F)(F)CC1)c1cccnc1 (single isomer, unassigned) [1288a Isomer 2] | 2 to 10 µM |
| CO[C@@H]1C[C@H](C(=O)N(c2ccc(S(F)(F)(F)(F)F)cc2F)C(C(=O)NC2CCC(F)(F)CC2)c2cccnc2)N(C#N)C1 (single isomer, unassigned) [1288 Isomer 2] | < 2 µM |
| N#CN1C[C@@H](OCc2ccccc2)C[C@@H]1C(=O)N(c1ccc(S(F)(F)(F)(F)F)cc1)C(C(=O)NC1CCC(F)(F)CC1)c1cncc(F)c1 (single isomer, unassigned) [1280 Isomer 2] | > 30 µM |
| N#CN1CC(=O)NCC1C(=O)N(c1ccc(S(F)(F)(F)(F)F)cc1)C(C(=O)NC1CCC(F)(F)CC1)c1cncc(F)c1 (single isomer, unassigned) [Compound 1160 Isomer 1] | < 2 µM |

List reported IC50 for each of these molecules:
1. CC(C(=O)NC1CCC(F)(F)CC1)(c1cccnc1)N(C(=O)[C@H]1[C@@H]2C[C@@H]2CN1C#N)c1ccc(S(F)(F)(F)(F)F)cc1 (single isomer, unassigned) [Compound 1251 Isomer 2]
2. CC(C)(C)c1ccc(N(C(=O)c2scnc2Cl)C(C(=O)NC2CCCCC2)c2cccnc2)cc1 (centres unmarked) [Compound 899a]
3. N#CN1C[C@H]2C[C@H]2[C@@H]1C(=O)N(c1ccc(S(F)(F)(F)(F)F)cc1)C(C(=O)NC1CCC(F)(F)CC1)c1cncc(F)c1 (some centres unmarked) [Compound 1095b]
4. CC(C)(C)c1ccc(N(C(=O)[C@H]2C[C@H](O)CN2C#N)C(C(=O)NC2CCCCC2)c2cccnc2)cc1 (single isomer, unassigned) [Compound 255 Isomer 2]

# output
< 2 µM
> 30 µM
< 2 µM
< 2 µM

List reported IC50 for each of these molecules:
1. CO[C@@H]1C[C@H](C(=O)N(c2ccc(C(C)(C)C)cc2)C(C)(C(=O)NC2CCC(F)(F)CC2)c2cccnc2)N(C#N)C1 (single isomer, unassigned) [1232 Isomer 1]
2. CC(C)(C)c1ccc(N(C(=O)[C@H]2CCCN2C#N)C(C(=O)N2CC(F)C2)c2cccnc2)cc1 (some centres unmarked) [Compound 952]
3. CO[C@@H]1C[C@H](C(=O)N(c2ccc(S(F)(F)(F)(F)F)cc2)C(C(=O)Nc2ccc3c(c2)OCCO3)c2cccnc2)N(C#N)C1 (single isomer, unassigned) [1170 Isomer 1]

# output
2 to 10 µM
2 to 10 µM
10 to 30 µM
